System: CD69 expression on B cells in human whole blood
assayExplanation: Whole Blood Assay of BCR-Stimulated CD69 Expression on B Cells
Type: cell-based
conditionsUsed: B-cell
resultType: IC50 (µM)
Give the value in µM but do not write µM after it.

stdin: Would you mind telling me what IC50 value was observed for CC(C)(O)c1ccc2c(c1)[nH]c1c(C(N)=O)cc(Cl)c(-c3cccc(-n4c(=O)[nH]c5c(F)cccc5c4=O)c3Cl)c12 [Example 47] ?
stdout: 0.027

stdin: Subsequent entry: Cc1c(-c2c(Cl)cc(C(N)=O)c3[nH]c4cc(C(C)(C)O)ccc4c23)cccc1-n1c(=O)c2ccc(F)cc2n(C)c1=O [Example 9]
stdout: 0.076

stdin: Subsequent entry: Cc1c(-c2c(Cl)cc(C(N)=O)c3[nH]c4cc(C(C)(C)O)ccc4c23)cccc1-n1c(=O)[nH]c2c(F)cc(F)cc2c1=O (single isomer, unassigned) [Example 48]
stdout: 0.025

stdin: Subsequent entry: Cc1c(-c2c(Cl)cc(C(N)=O)c3[nH]c4c(c23)CC[C@H](C(C)(C)O)C4)cccc1-n1c(=O)c2cccc(F)c2n(C)c1=O [Example 25]
stdout: 0.2

stdin: Subsequent entry: COc1cccn2c(=O)n(-c3cccc(-c4c(Cl)cc(C(N)=O)c5[nH]c6cc(C(C)(C)O)ccc6c45)c3C)c(=O)cc12 [Example 37]
stdout: 0.2

stdin: Subsequent entry: Cc1c(-c2c(Cl)cc(C(N)=O)c3[nH]c4c(c23)CC[C@H](C(C)(C)O)C4)cccc1-n1c(=O)[nH]c2c(F)cc(F)cc2c1=O (single isomer, unassigned) [Example 57]
stdout: 0.054

stdin: Subsequent entry: [2H]C([2H])([2H])n1c(=O)n(-c2cccc(-c3c(F)cc(C(N)=O)c4[nH]c5c(c34)CC[C@H](C(C)(C)O)C5)c2C)c(=O)c2cccc(F)c21 (single isomer, unassigned) [Example 62]
stdout: 0.074

stdin: Subsequent entry: Cc1c(-c2c(F)cc(C(N)=O)c3[nH]c4c(c23)CC[C@H](C(C)(C)O)C4)cccc1-n1c(=O)cc2c(Cl)cccn2c1=O (single isomer, unassigned) [Example 64]
stdout: 0.088

stdin: Subsequent entry: Cc1c(-c2c(F)cc(C(N)=O)c3[nH]c4cc(C(C)(C)O)ccc4c23)cccc1-n1c(=O)c2cccc(F)c2n(C)c1=O (single isomer, unassigned) [Example 74]
stdout: 0.18

stdin: Subsequent entry: Cc1c(-c2c(F)cc(C(N)=O)c3[nH]c4cc(C(C)(C)O)ccc4c23)cccc1-n1c(=O)[nH]c2cc(F)ccc2c1=O (single isomer, unassigned) [Example 51]
stdout: 0.19

stdin: Subsequent entry: [2H]C([2H])([2H])n1c(=O)n(-c2cccc(-c3c(F)cc(C(N)=O)c4[nH]c5cc(C(C)(C)O)ccc5c34)c2C)c(=O)c2cccc(F)c21 (single isomer, unassigned) [Example 52]
stdout: 0.025

stdin: Subsequent entry: COc1cccc2c(=O)n(-c3cccc(-c4c(Cl)cc(C(N)=O)c5[nH]c6cc(C(C)(C)O)ccc6c45)c3C)c(=O)n(C)c12 [Example 7]
stdout: 0.13

====

testTarget: UniProt:O60674
Sequence (O60674 whole entry): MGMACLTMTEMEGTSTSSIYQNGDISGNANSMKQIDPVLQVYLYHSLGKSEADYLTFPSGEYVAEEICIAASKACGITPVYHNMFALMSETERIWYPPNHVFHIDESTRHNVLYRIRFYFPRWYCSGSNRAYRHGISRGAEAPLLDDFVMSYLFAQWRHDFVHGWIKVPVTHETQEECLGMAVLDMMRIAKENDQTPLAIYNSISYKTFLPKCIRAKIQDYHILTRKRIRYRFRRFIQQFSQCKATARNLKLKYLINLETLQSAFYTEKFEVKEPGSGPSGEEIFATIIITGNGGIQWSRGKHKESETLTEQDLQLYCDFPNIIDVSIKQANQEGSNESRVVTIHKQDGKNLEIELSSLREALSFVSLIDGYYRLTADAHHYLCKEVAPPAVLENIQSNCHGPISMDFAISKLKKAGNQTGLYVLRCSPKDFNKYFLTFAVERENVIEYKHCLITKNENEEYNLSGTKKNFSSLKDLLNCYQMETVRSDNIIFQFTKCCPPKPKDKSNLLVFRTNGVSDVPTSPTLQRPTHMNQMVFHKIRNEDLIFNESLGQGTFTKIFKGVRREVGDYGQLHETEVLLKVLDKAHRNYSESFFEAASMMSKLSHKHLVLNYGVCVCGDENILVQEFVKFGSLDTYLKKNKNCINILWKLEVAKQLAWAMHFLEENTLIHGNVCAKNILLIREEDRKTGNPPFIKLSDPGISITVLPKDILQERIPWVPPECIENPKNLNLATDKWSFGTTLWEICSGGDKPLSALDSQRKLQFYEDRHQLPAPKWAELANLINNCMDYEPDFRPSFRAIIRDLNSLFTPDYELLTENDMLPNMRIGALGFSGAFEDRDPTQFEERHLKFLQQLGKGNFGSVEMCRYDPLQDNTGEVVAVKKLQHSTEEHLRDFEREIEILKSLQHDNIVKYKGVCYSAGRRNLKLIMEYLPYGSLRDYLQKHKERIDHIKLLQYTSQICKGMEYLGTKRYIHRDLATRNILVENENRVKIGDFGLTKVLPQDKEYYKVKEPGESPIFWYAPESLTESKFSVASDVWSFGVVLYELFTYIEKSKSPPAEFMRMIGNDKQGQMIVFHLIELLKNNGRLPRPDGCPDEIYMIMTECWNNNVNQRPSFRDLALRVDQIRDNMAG
assayExplanation: Jak2 Tyrosine Kinase Assay
Type: biochemical
conditionsUsed: selectivity: Jak2 IC50 divided by Btk IC50
Kindly state Ratio of Jak2/Btk IC50 values for each of the entries shown.
Please give only the number in your answer, with no unit.

stdin: Would you mind telling me what Ratio of Jak2/Btk IC50 values value was observed for Cc1c(-c2c(F)cc(C(N)=O)c3[nH]c4cc(C(C)(C)O)ccc4c23)cccc1-n1c(=O)[nH]c2c(Cl)cccc2c1=O (single isomer, unassigned) [Example 53] ?
stdout: 2000

stdin: Subsequent entry: Cc1c(-c2c(C#N)cc(C(N)=O)c3[nH]c4cc(C(C)(C)O)ccc4c23)cccc1-n1c(=O)cc2c(Cl)cccn2c1=O (single isomer, unassigned)
stdout: 1600

stdin: Subsequent entry: Cc1c(-c2c(Cl)cc(C(N)=O)c3[nH]c4c(c23)CC[C@H](C(C)(C)O)C4)cccc1-n1c(=O)[nH]c2c(F)cc(F)cc2c1=O (single isomer, unassigned)
stdout: 1100

stdin: Subsequent entry: Cc1c(-c2c(F)cc(C(N)=O)c3[nH]c4cc(C(C)(C)O)ccc4c23)cccc1-n1c(=O)[nH]c2c(Cl)cccc2c1=O (single isomer, unassigned) [Example 54]
stdout: 3400

Reference source for all entries: patent US10106559B2
